# TESTED SYSTEM: human histamine H4 receptor (Homo sapiens, UniProt Q9H3N8)
# Construct: cell membranes
# Sequence (Q9H3N8 whole entry): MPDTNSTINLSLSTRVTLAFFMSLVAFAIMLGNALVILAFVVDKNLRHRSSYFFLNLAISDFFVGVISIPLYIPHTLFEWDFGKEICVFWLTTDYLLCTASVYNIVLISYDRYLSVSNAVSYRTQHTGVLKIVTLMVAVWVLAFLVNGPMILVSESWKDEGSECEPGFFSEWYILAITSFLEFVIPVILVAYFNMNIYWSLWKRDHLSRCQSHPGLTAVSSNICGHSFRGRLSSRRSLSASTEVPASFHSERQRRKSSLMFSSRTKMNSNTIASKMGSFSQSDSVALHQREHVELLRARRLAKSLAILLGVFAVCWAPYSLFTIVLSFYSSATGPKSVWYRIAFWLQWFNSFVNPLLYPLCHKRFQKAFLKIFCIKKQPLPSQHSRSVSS
# TEST DETAILS: Binding Assay on Recombinant Human Histamine H4 Receptor
# CONDITION INFO: competition binding with 3H-histamine (5 nM; KD 5 nM), membranes of SK-N-MC or COS7 cells expressing human H4 receptor; average of results; > = highest value tested
pKi: −log10 of the molar value.
Consider the following molecules and their measured pKi readings.
ASSAY ENDPOINT: pKi

{"MOLECULE": "CN1CCC(CCCn2cc(Cl)c3cc(-c4nc5cc(C(C)(C)C)ccc5[nH]4)ccc32)CC1 [Example 28]", "OPERATOR SYMBOL": "=", "READOUT VALUE": 6.46}
{"MOLECULE": "CC(C)(C)c1ccc2[nH]c(-c3ccc4c(ccn4CCCN4CCNCC4)c3)nc2c1 [Example 63]", "OPERATOR SYMBOL": "=", "READOUT VALUE": 5.78}
{"MOLECULE": "Cc1c(C)n(CCCC2CCN(C)CC2)c2ccc(-c3nc4c(C)c(F)ccc4[nH]3)cc12 [Example 15]", "OPERATOR SYMBOL": "=", "READOUT VALUE": 6.96}
{"MOLECULE": "Cc1cc(C)c2nc(-c3ccc4c(c3)c(C)c(C)n4CCCC3CCNCC3)[nH]c2c1 [Example 89]", "OPERATOR SYMBOL": "=", "READOUT VALUE": 5.70}
{"MOLECULE": "Cc1cccc2[nH]c(-c3ccc4c(c3)CCN4CCCC3CCN(C)CC3)nc12 [Example 98]", "OPERATOR SYMBOL": "=", "READOUT VALUE": 6.80}
{"MOLECULE": "CN1CCC(CCCCn2cc(Cl)c3c(-c4nc5cc(C(F)(F)F)ccc5[nH]4)cccc32)CC1 [Example 30]", "OPERATOR SYMBOL": "=", "READOUT VALUE": 7.33}
{"MOLECULE": "Cc1cc(C)c2nc(-c3ccc4c(c3)c(C)c(C)n4CCCC3CCN(C)CC3)[nH]c2c1 [Example 14]", "OPERATOR SYMBOL": "=", "READOUT VALUE": 7.08}
{"MOLECULE": "Fc1ccc2[nH]c(-c3cccc4c3ccn4CCCCC3CCNCC3)nc2c1 [Example 115]", "OPERATOR SYMBOL": "<", "READOUT VALUE": 5.00}

* * *

# TESTED SYSTEM: human histamine H4 receptor (Homo sapiens)
# Construct: cell membranes
# TEST DETAILS: Binding Assay on Recombinant Human Histamine H4 Receptor
# CONDITION INFO: competition binding with 3H-histamine (5 nM; KD 5 nM), membranes of SK-N-MC or COS7 cells expressing human H4 receptor; average of results; > = highest value tested
So basically: is Ki under 80 nM? Then 1. Not under? Then -1.

{"COMPOUND": "COC(=O)c1ccc2[nH]c(-c3ccc4c(c3Cl)CCN4CCCC3CCN(C)CC3)nc2c1 [Example 5]", "TESTED SYSTEM": "human histamine H4 receptor (Homo sapiens)", "CATEGORY LABEL": 1}
{"COMPOUND": "CCCc1[nH]c(-c2ccc3c(ncn3CCCC3CCN(C)CC3)c2C)nc1C [Example 81]", "TESTED SYSTEM": "human histamine H4 receptor (Homo sapiens)", "CATEGORY LABEL": -1}
{"COMPOUND": "Cc1c(F)ccc2[nH]c(-c3ccc4ncn(CCCCC5CCN(C)CC5)c4c3)nc12 [Example 45]", "TESTED SYSTEM": "human histamine H4 receptor (Homo sapiens)", "CATEGORY LABEL": -1}
{"COMPOUND": "Cc1cccc2[nH]c(-c3ccc4c(ncn4CCCC4CCN(C)CC4)c3C)nc12 [Example 53]", "TESTED SYSTEM": "human histamine H4 receptor (Homo sapiens)", "CATEGORY LABEL": 1}
{"COMPOUND": "FC(F)(F)c1ccc2[nH]c(-c3cccc4c3c(Cl)cn4CCCCC3CCNCC3)nc2c1 [Example 130]", "TESTED SYSTEM": "human histamine H4 receptor (Homo sapiens)", "CATEGORY LABEL": -1}
{"COMPOUND": "Cc1ccc2[nH]c(-c3ccc4c(c3)CCN4CCCC3CCNCC3)nc2c1C [Example 56]", "TESTED SYSTEM": "human histamine H4 receptor (Homo sapiens)", "CATEGORY LABEL": -1}
{"COMPOUND": "CN1CCC(CCCCn2cc(Cl)c3c(-c4nc5cccc(C(=O)c6ccccc6)c5[nH]4)cccc32)CC1 [Example 72]", "TESTED SYSTEM": "human histamine H4 receptor (Homo sapiens)", "CATEGORY LABEL": -1}
{"COMPOUND": "Cc1c(Cl)ccc2[nH]c(-c3ccc4c(ncn4CCCC4CCN(C)CC4)c3C)nc12 [Example 54]", "TESTED SYSTEM": "human histamine H4 receptor (Homo sapiens)", "CATEGORY LABEL": 1}

Ref: patent US8084466B2
